biological target: Nitric oxide synthase (neuronal, human recombinant) nNOS (Homo sapiens (Human)); test: Human nNOS enzyme assay ([3H]-L-arginine to L-citrulline conversion); format: biochemical; settings: ratio of human eNOS IC50 to human nNOS IC50
Structures can show the parent of a compound that is named as a salt.
Short version: Selectivity eNOS/nNOS at least 200 is Met, less is Not met.

Reference set, count: 3
CN(C)CCN1CCSc2cc(NC(=N)c3cccs3)ccc21 [Compound 12, dihydrochloride] | Not met
CN1CCCC1CCN1CCOc2cc(NC(=N)c3cccs3)ccc21 (stereo not drawn) | Not met
CN(CCN1CCSc2cc(NC(=N)c3cccs3)ccc21)CC(=O)O [Compound 17, dihydrochloride] | Not met

Q: Is Selectivity eNOS/nNOS at least 200? Consider CN(C)CCCN1CCSc2cc(NC(=N)c3cccs3)ccc21
A: Met

Q: Would you mind doing CNCCN1CCOc2ccc(NC(=N)c3cccs3)cc21 [Compound 10, dihydrochloride] as well?
A: Not met

Q: Would you mind doing N=C(Nc1ccc2c(c1)SCCN2CCN1CCC[C@H]1C(=O)O)c1cccs1 [Compound 18, dihydrochloride] as well?
A: Not met

Q: Would you mind doing CCN(CC)CCN1CCSc2cc(NC(=N)c3cccs3)ccc21 as well?
A: Not met

Q: Would you mind doing CN(C)CCN1CCOc2cc(NC(=N)c3cccs3)ccc21 as well?
A: Met
